B1: Pistol ribozyme (parent)
chain: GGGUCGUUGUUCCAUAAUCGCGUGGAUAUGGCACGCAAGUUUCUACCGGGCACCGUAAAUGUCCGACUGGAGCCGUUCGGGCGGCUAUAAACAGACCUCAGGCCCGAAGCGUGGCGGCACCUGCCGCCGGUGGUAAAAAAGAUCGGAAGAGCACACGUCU

Variants of: B1
Test: aptazyme ON/OFF ratio, guanine; higher = stronger switching; co-transcriptional cleavage with and without guanine
Listed variants paired with reported aptazyme ON/OFF ratio
Measured Metric: aptazyme ON/OFF ratio

INSERT INTO results (sequence_change, measured_metric, numeric_readout) VALUES
  ('U7C G9U U10G U11C C13G', 'aptazyme ON/OFF ratio', 1.06),
  ('U7C U8A G9A U10C U11C C12U C13A', 'aptazyme ON/OFF ratio', 1.03),
  ('U7G U8G U10G C12G C13G', 'aptazyme ON/OFF ratio', 1.32),
  ('U7C G9A U10G U11A C12A C13U', 'aptazyme ON/OFF ratio', 1.16),
  ('U8A G9C U10C U11G', 'aptazyme ON/OFF ratio', 0.775),
  ('U7C G9U', 'aptazyme ON/OFF ratio', 1.05),
  ('U7C U8G G9U U10A U11G C12U C13G', 'aptazyme ON/OFF ratio', 1.14),
  ('U8A G9A U10A U11G C13A', 'aptazyme ON/OFF ratio', 1.12),
  ('U7G U8G G9C U10G C12A C13G', 'aptazyme ON/OFF ratio', 1.06),
  ('U7A U8A G9U C12A', 'aptazyme ON/OFF ratio', 1.19),
  ('U7C U8A G9A U10C U11C C13A', 'aptazyme ON/OFF ratio', 1.03),
  ('U7A U8A G9C C12G C13G', 'aptazyme ON/OFF ratio', 1.17),
  ('U7A U10C U11C C13U', 'aptazyme ON/OFF ratio', 1.03),
  ('U8C U10C C12U C13A', 'aptazyme ON/OFF ratio', 1.21),
  ('U7G U8A U10A U11A C12G C13G', 'aptazyme ON/OFF ratio', 1.2),
  ('U7G U8C G9U U10A U11C C12A C13A', 'aptazyme ON/OFF ratio', 1.28),
  ('U7A U8G G9C U10G U11G C12G', 'aptazyme ON/OFF ratio', 1.19),
  ('U8A U10A C13U', 'aptazyme ON/OFF ratio', 1.03),
  ('U7C U8C G9U U10A U11C C12U C13U', 'aptazyme ON/OFF ratio', 1.15),
  ('U7C U8A G9U U10A U11A C12G C13A', 'aptazyme ON/OFF ratio', 1.08),
  ('U7A U8C U10A U11C C13A', 'aptazyme ON/OFF ratio', 1.05),
  ('U7A U8C G9A U10G U11G C12G C13G', 'aptazyme ON/OFF ratio', 1.09);

Every entry's value here was drawn from the RNAGym collection of RNA variant scans (doi:10.1021/acssynbio.7b00057).
